Experiment: Plasma vosaroxin pharmacokinetics in patients
Format: in vivo, human
Experimental Setup: human, plasma, intravenous, AUCinf, mean, twice weekly, Day 1, 9–50 mg/m^2, N 31, cycle 1
Measurement Type: AUC(0-inf) (ng·h/mL)

compound="CN[C@H]1CN(c2ccc3c(=O)c(C(=O)O)cn(-c4nccs4)c3n2)C[C@@H]1OC [vosaroxin]" measurement_type=AUC(0-inf) number=14200

* * *

Experiment: Plasma vosaroxin pharmacokinetics in patients
Type: in vivo, human
Experimental Setup: human, plasma, intravenous, 72 mg/m2, CL, mean, weekly, Day 1, 72 mg/m^2, N 11, cycle 1
Measurement Type: clearance (mL/min)

structure_smiles=CN[C@H]1CN(c2ccc3c(=O)c(C(=O)O)cn(-c4nccs4)c3n2)C[C@@H]1OC unit_text=mL/min number=69.3

* * *

Experiment: Plasma vosaroxin pharmacokinetics in patients
Assay type: in vivo, human
Experimental Setup: human, plasma, intravenous, MRT, mean, twice weekly, Day 1, 9–50 mg/m^2, N 31, cycle 1
Measurement Type: MRT (h)

structure_smiles=CN[C@H]1CN(c2ccc3c(=O)c(C(=O)O)cn(-c4nccs4)c3n2)C[C@@H]1OC measurement_type=MRT number=33.9

* * *

Experiment: Plasma vosaroxin pharmacokinetics in patients
Format: in vivo, human
Experimental Setup: human, plasma, intravenous, CL, mean, weekly, Day 1, 18–90 mg/m^2, N 41, cycle 1
Measurement Type: clearance (mL/min)

structure_smiles=CN[C@H]1CN(c2ccc3c(=O)c(C(=O)O)cn(-c4nccs4)c3n2)C[C@@H]1OC number=65.3

* * *

Experiment: Plasma vosaroxin pharmacokinetics in patients
Assay type: in vivo, human
Experimental Setup: human, plasma, intravenous, 72 mg/m^2
Measurement Type: Cmax (ng/mL)

structure_smiles=CN[C@H]1CN(c2ccc3c(=O)c(C(=O)O)cn(-c4nccs4)c3n2)C[C@@H]1OC number=1920

* * *

Experiment: Plasma vosaroxin pharmacokinetics in patients
Format: in vivo, human
Experimental Setup: human, plasma, intravenous, Vss, mean, twice weekly, Day 1, 9–50 mg/m^2, N 31, cycle 1
Measurement Type: Vd (L)

structure_smiles=CN[C@H]1CN(c2ccc3c(=O)c(C(=O)O)cn(-c4nccs4)c3n2)C[C@@H]1OC number=142

* * *

Experiment: Plasma vosaroxin pharmacokinetics in patients
Type: in vivo, human
Experimental Setup: human, plasma, intravenous, MRT, mean, twice weekly, Day 8, 9–50 mg/m^2, N 29, cycle 1
Measurement Type: MRT (h)

molecule="CN[C@H]1CN(c2ccc3c(=O)c(C(=O)O)cn(-c4nccs4)c3n2)C[C@@H]1OC [vosaroxin]" unit_text=h number=28.6

* * *

Experiment: Plasma vosaroxin pharmacokinetics in patients
Format: in vivo, human
Experimental Setup: human, plasma, intravenous, 72 mg/m2, AUCinf, mean, weekly, Day 1, 72 mg/m^2, N 11, cycle 1
Measurement Type: AUC(0-inf) (ng·h/mL)

structure_smiles=CN[C@H]1CN(c2ccc3c(=O)c(C(=O)O)cn(-c4nccs4)c3n2)C[C@@H]1OC number=39400

* * *

Experiment: Plasma vosaroxin pharmacokinetics in patients
Type: in vivo, human
Experimental Setup: human, plasma, intravenous, T1/2, mean, twice weekly, Day 1, 9–50 mg/m^2, N 31, cycle 1
Measurement Type: half-life

structure_smiles=CN[C@H]1CN(c2ccc3c(=O)c(C(=O)O)cn(-c4nccs4)c3n2)C[C@@H]1OC result="26.6 h"
